# Assayed System: SCD (SCD-containing rat microsomes) (Rattus norvegicus, UniProt P07308)
# Construct: SCD-containing rat microsomes (2 μg protein); from tissue
# Sequence (P07308 whole entry): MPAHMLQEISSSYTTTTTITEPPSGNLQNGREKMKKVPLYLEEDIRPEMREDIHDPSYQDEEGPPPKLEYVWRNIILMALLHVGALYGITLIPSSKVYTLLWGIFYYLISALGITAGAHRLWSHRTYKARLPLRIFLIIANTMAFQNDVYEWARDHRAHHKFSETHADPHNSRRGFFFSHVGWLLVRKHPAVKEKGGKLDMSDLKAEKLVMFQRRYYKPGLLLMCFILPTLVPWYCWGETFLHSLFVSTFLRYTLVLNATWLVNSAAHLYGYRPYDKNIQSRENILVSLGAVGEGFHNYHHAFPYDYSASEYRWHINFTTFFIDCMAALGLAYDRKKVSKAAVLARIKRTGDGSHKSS
# Protocol Summary: in vitro assay for SCD activity based on production of [3H]H2O from [9,10-3H] stearoyl Coenzyme A
# Type: biochemical
# Test Context: SCD-containing rat microsomes (2 μg protein), substrate 1 μM, 6 min incubation, 5 min preincubation with compound; read-out: average pIC50 value, in vitro assay for SCD activity (converted)
Where a name gives a salt, the structure may show the parent alone.
# key: entry, value: IC50
Measured Quantity: IC50

| Compound | Assayed System | Data Value |
| --- | --- | --- |
| CC(C)COc1ccc(Cl)cc1Cn1nc(NC(=O)c2ccc3c(c2)CCNC3)cc1C1CC1 [Example 2, hydrochloride] | SCD (SCD-containing rat microsomes) (Rattus norvegicus, UniProt P07308) | < 3.16 µM |
| CC(C)COc1ccc(Cl)cc1Cn1nc(C(=O)Nc2ccc3c(c2)CCNC3)cc1C1CC1 [hydrochloride] | SCD (SCD-containing rat microsomes) (Rattus norvegicus, UniProt P07308) | > 10 µM |
| CCc1cc(NC(=O)c2ccc3c(c2)CCNC3)nn1Cc1cc(Cl)ccc1OCC(C)C [Example 1, hydrochloride] | SCD (SCD-containing rat microsomes) (Rattus norvegicus, UniProt P07308) | < 3.16 µM |
| CCCc1cc(C(=O)Nc2ccc3c(c2)CCNC3)nn1Cc1cc(Cl)ccc1OCC(C)C [hydrochloride] | SCD (SCD-containing rat microsomes) (Rattus norvegicus, UniProt P07308) | 3.16 to 10 µM |
